Sourced from PubChem BioAssay (NCI)

System: 786-0 renal
Assay: NCI-60 one-dose screen, 48 h (100 = growth as untreated, 0 = no growth, -100 = all killed)
Conditions: 10 µM unless noted
This is part of a sample that, as a whole, favours compounds with a hit. Of some 83,000 tested, about 20% had one in any assay.

>  <ITEM SMILES>
Cn1ccnc1C(=O)/C=C/c1ccc(CC(=O)Nc2ccc(Cl)cc2)cc1

>  <growth (%)>
11.3

$$$$
>  <ITEM SMILES>
Cc1cc2nc3c4ccc(Br)cc4n(CCN(C)C)c3nc2cc1C

>  <growth (%)>
23.2

$$$$
>  <ITEM SMILES>
Oc1ccc(OCCOc2ccc(O)cc2)cc1

>  <growth (%)>
28.3

$$$$
>  <ITEM SMILES>
C=C1C(=O)O[C@H]2[C@H]1CC/C(CNS(=O)(=O)c1cccc3ccccc13)=C\CC[C@@]1(C)O[C@@H]21

>  <growth (%)>
26.1

$$$$
>  <ITEM SMILES>
COc1cc2nc(-c3ccc(Cl)cc3)cc(OCCCN3CCCCC3)c2cc1OC

>  <growth (%)>
72.5

$$$$

====

Test system: SNB-19 CNS
Assay: NCI-60 one-dose screen, 48 h
Details: 10 µM unless noted
Compounds without any hit were thinned out: in the full panel of roughly 83,000, 20% have a hit. Active and inactive are the calls of the source. How the source made its calls: active means growth percent below 10; inactive means the rest.
Outcome codes: 1 = active, 0 = inactive

>  <ITEM SMILES>
O=C1c2ccccc2C(=O)c2c([N+](=O)[O-])ccc(Cl)c21

>  <SYSTEM>
SNB-19 CNS

>  <CAT>
0

$$$$
>  <ITEM SMILES>
O=S(=O)(NCCNc1nccc(-c2c(-c3cccc(O)c3)nc3occn23)n1)c1ccc(Cl)cc1

>  <SYSTEM>
SNB-19 CNS

>  <CAT>
0

$$$$
>  <ITEM SMILES>
O=C1Nc2cc(-c3cccc(O)c3)ccc2/C1=C/c1ccc[nH]1

>  <SYSTEM>
SNB-19 CNS

>  <CAT>
0

$$$$
>  <ITEM SMILES>
C[C@H](c1nc2ccc(N)cc2[nH]1)[C@H]1CC[C@H]2[C@@H]3CCC4=CC(=O)CC[C@]4(C)[C@H]3CC[C@]12C

>  <SYSTEM>
SNB-19 CNS

>  <CAT>
0

$$$$
>  <ITEM SMILES>
COc1ccc(OC)c(CCn2cncc2-c2c[nH]c3ccccc23)c1

>  <SYSTEM>
SNB-19 CNS

>  <CAT>
0

$$$$
>  <ITEM SMILES>
COc1ccccc1/C=C1\Oc2cc(OCCN3CCCC3)ccc2C1=O

>  <SYSTEM>
SNB-19 CNS

>  <CAT>
0

$$$$
>  <ITEM SMILES>
COc1ccc(-c2cnc3c(-c4cccc5ncccc45)cnn3c2)cc1

>  <SYSTEM>
SNB-19 CNS

>  <CAT>
1

$$$$
>  <ITEM SMILES>
COc1ccc2c(c1)oc1c(C)c3c(c(C)c12)C(=O)N(N)C3=O

>  <SYSTEM>
SNB-19 CNS

>  <CAT>
0

$$$$
>  <ITEM SMILES>
CC(=O)[C@H]1CCC/C=C/[C@@H]2C[C@H](O)C[C@H]2[C@H](O)/C=C/C(=O)O1

>  <SYSTEM>
SNB-19 CNS

>  <CAT>
0

$$$$
